methodDescription: Clearance in human liver microsomes at 1 uM by LC-MS/MS analysis relative to hepatic blood flow
Format: ADME, Microsome
testParameters: read-out: CLH
The entries below are paired with their reported hepatic extraction ratio at 1 µM.
Lab note: record just the number, no unit beside it.

Use these answered entries as a reference point.
molecule: COCCCn1c(=O)nc(-c2ccc(N3CCN(C4CC4)CC3)cc2)c2oc3ccc(Cl)cc3c21
measurementLabel: hepatic extraction ratio at 1 µM
experimentalValue: 0.52
//
molecule: CCCCCn1c(=O)nc(-c2ccc(NC)nc2)c2oc3ccc(-c4cnn(C)c4)cc3c21
measurementLabel: hepatic extraction ratio at 1 µM
experimentalValue: 0.81
//
molecule: COCCCn1c(=O)nc(-c2ccc(N3CCN(C(C)C)CC3)nc2)c2oc3ccc(Cl)cc3c21
measurementLabel: hepatic extraction ratio at 1 µM
experimentalValue: 0.59
//
molecule: CCNCC(=O)Nc1ccc(-c2nc(=O)n(CCOC)c3c2oc2ccc(-c4ccc5c(c4)CCN(C)C5)cc23)cc1
measurementLabel: hepatic extraction ratio at 1 µM
experimentalValue: 0.29
//
molecule: CCNCC(=O)Nc1ccc(-c2nc(=O)n(CCCOC)c3c2oc2ccc(Cl)cc23)cc1
measurementLabel: hepatic extraction ratio at 1 µM
experimentalValue: 0.46
//
molecule: COCCCn1c(=O)nc(-c2ccc(N3CCN(C)CC3)nc2)c2oc3ccc(-c4cnn(C)c4)cc3c21
measurementLabel: hepatic extraction ratio at 1 µM
experimentalValue: 0.67
//
molecule: COCCCn1c(=O)nc(-c2ccc(N3CCN(C(C)C)CC3)cc2)c2oc3ccc(Cl)cc3c21
measurementLabel: hepatic extraction ratio at 1 µM
experimentalValue: 0.51
//
molecule: CNc1ccc(-c2nc(=O)n(CCC3CCCO3)c3c2oc2ccc(-c4cnn(C)c4)cc23)cn1 (racemic)
measurementLabel: hepatic extraction ratio at 1 µM
experimentalValue: 0.61

Tell me measured hepatic extraction ratio at 1 µM for "COCCCn1c(=O)nc(-c2ccc(N3CCN(CCOC)CC3)cc2)c2oc3ccc(Cl)cc3c21" please.
0.61

Specify hepatic extraction ratio at 1 µM for "COCCCn1c(=O)nc(-c2ccc(N3CCNCC3)cc2)c2oc3ccc(Cl)cc3c21" and stop.
0.28

Look up and report measured hepatic extraction ratio at 1 µM for this entry: "COCCCn1c(=O)nc(-c2ccc(N3CCN(CCOC)CC3)nc2)c2oc3ccc(Cl)cc3c21"
0.78

Indicate its recorded hepatic extraction ratio at 1 µM; the molecule in question is "CNc1ccc(-c2nc(=O)n(CCCOC)c3c2oc2ccc(-c4cnn(C)c4)cc23)cn1"
0.5

###

methodDescription: Inhibition of HIV-1 BH10 reverse transcriptase using poly(rA)/oligo(dT)15 as substrate after 60 mins by plate reader analysis
Set-up: species or system Human immunodeficiency virus type 1 BH10
Listed next: entries and their corresponding pIC50.
On this scale, pIC50 is minus log10 of a concentration expressed in M (mol/L).

In the examples that follow, each entry is paired with its recorded pIC50.
chemicalSmiles: CC(C)CCCn1c(=O)nc(-c2ccccc2)c2oc3ccc(-c4ccc(CN(C)C)cc4)cc3c21
pIC50: 7.26

chemicalSmiles: CC(C)CCn1c(=O)nc(-c2ccccc2)c2oc3ccc(-c4ccc(CN(C)C)cc4)cc3c21
pIC50: 6.72

chemicalSmiles: CCNCC(=O)Nc1ccc(-c2nc(=O)n(CCOC)c3c2oc2ccc(-c4ccc5c(c4)CCN(C)C5)cc23)cc1
pIC50: 8.40

Give pIC50 for "COCCCn1c(=O)nc(-c2ccc(N3CCN(C)CC3)nc2)c2oc3ccc(-c4cnn(C)c4)cc3c21"
8.52

###

methodDescription: Inhibition of HIV-1 BH10 reverse transcriptase using poly(rA)/oligo(dT)15 as substrate after 60 mins by plate reader analysis
Set-up: species or system Human immunodeficiency virus type 1 BH10
Please respond with Y when measured IC50 is strictly beneath 10 nM, and with N in all other cases.

molecule: CC(C)Cn1c(=O)nc(-c2ccccc2)c2oc3ccc(-c4ccc(CN(C)C)cc4)cc3c21
groupLabel: N

molecule: CCOC(=O)CCCn1c(=O)nc(-c2ccccc2)c2oc3ccc(-c4ccc(CN(C)C)cc4)cc3c21
groupLabel: N

Decide: IC50 of "CCCCCn1c(=O)nc(-c2ccccc2)c2oc3ccc(-c4ccc(CN(C)C)cc4)cc3c21" strictly below 10 nM?
N

Below 10 nM on IC50? Entry "CCCCCn1c(=O)nc(-c2ccc(NC)nc2)c2oc3ccc(-c4cnn(C)c4)cc3c21"
Y

Bench note: check whether "CN(C)Cc1ccc(-c2ccc3oc4c(-c5ccccc5)nc(=O)n(-c5ccccc5)c4c3c2)cc1" shows IC50 below 10 nM
N

hey, is IC50 for "COCCCCn1c(=O)nc(-c2ccccc2)c2oc3ccc(-c4ccc(CN(C)C)cc4)cc3c21" lower than 10 nM or not?
N

Consider "COCCCn1c(=O)nc(-c2ccccc2)c2oc3ccc(-c4ccc(CN(C)C)cc4)cc3c21" . Does its IC50 lie strictly below 10 nM?
N

###

methodDescription: Cytotoxicity against human C8166-LTR-Luc cells after 3 days by MTT assay
Assay type: cell-based
measurementLabel: CC50 at 72 h (µM)
Just the number please, in µM, no unit attached.

Illustrative cases are given below, each with its answer.
molecule: CNc1ccc(-c2nc(=O)n(CCC3CCCO3)c3c2oc2ccc(-c4cnn(C)c4)cc23)cn1 (racemic)
measurementLabel: CC50 at 72 h
experimentalValue: 3.8
//
molecule: COCCCn1c(=O)nc(-c2ccc(N3CCNCC3)cc2)c2oc3ccc(Cl)cc3c21
measurementLabel: CC50 at 72 h
experimentalValue: 2.7
//
molecule: COCCCn1c(=O)nc(-c2ccc(N3CCN(C(C)C)CC3)cc2)c2oc3ccc(Cl)cc3c21
measurementLabel: CC50 at 72 h
experimentalValue: 2.3
//
molecule: CCNCC(=O)Nc1ccc(-c2nc(=O)n(CCOC)c3c2oc2ccc(-c4ccc5c(c4)CCN(C)C5)cc23)cc1
measurementLabel: CC50 at 72 h
experimentalValue: 4.1

Identify measured CC50 at 72 h associated with "CCCCCn1c(=O)nc(-c2ccc(NC)nc2)c2oc3ccc(-c4cnn(C)c4)cc3c21"
4

###

Reported Papp A→B by item:
methodDescription: Permeability from apical to basolateral side of human Caco2 cells
Format: ADME, cell-based
testParameters: Caco-2, read-out: permeability
Numeric only. Scale: ×10⁻⁶ cm/s

Respond only with Papp A→B recorded for "COCCCn1c(=O)nc(-c2ccc(N3CCN(CCOC)CC3)cc2)c2oc3ccc(Cl)cc3c21"
8

Specify Papp A→B for CNc1ccc(-c2nc(=O)n(CCC3CCCO3)c3c2oc2ccc(-c4cnn(C)c4)cc23)cn1 (racemic) and stop.
3.1

Report Papp A→B, nothing else, for this compound: "COCCCn1c(=O)nc(-c2ccc(N3CCN(C(C)C)CC3)nc2)c2oc3ccc(Cl)cc3c21"
2.6

# return recorded Papp A→B for entry "COCCCn1c(=O)nc(-c2ccc(N3CCNCC3)cc2)c2oc3ccc(Cl)cc3c21"
0.3

Supply reported Papp A→B belonging to this compound: "COCCCn1c(=O)nc(-c2ccc(N3CCN(CCOC)CC3)nc2)c2oc3ccc(Cl)cc3c21"
12

###

methodDescription: Lipophilicity, log D of the compound in n-octanol buffer at 0.5 mg after 2 to 24 hrs by LC-MS analysis
Format: physicochemical
Entries annotated with measured logD

molecule: CCCCCn1c(=O)nc(-c2ccc(NC)nc2)c2oc3ccc(-c4cnn(C)c4)cc3c21
logD: 4.7
--
molecule: COCCCn1c(=O)nc(-c2ccc(N3CCN(C)CC3)nc2)c2oc3ccc(-c4cnn(C)c4)cc3c21
logD: 3

Attention now shifts to the item below.
Determine from records and report logD for CNc1ccc(-c2nc(=O)n(CCC3CCCO3)c3c2oc2ccc(-c4cnn(C)c4)cc23)cn1 (racemic)
3.4

###

methodDescription: Clearance in rat liver microsomes at 1 uM by LC-MS/MS analysis relative to hepatic blood flow
Format: ADME, Microsome
testParameters: read-out: CLH
measurementLabel: hepatic extraction ratio at 1 µM
Respond numerically, and do not add a unit to the figure.

Given the compound "CCNCC(=O)Nc1ccc(-c2nc(=O)n(CCOC)c3c2oc2ccc(-c4ccc5c(c4)CCN(C)C5)cc23)cc1" , write its reported hepatic extraction ratio at 1 µM.
0.11

###

Recorded IC50 values for a group of compounds are listed next.
methodDescription: Inhibition of HIV-1 BH10 reverse transcriptase using poly(rA)/oligo(dT)15 as substrate after 60 mins by plate reader analysis
Parameters: species or system Human immunodeficiency virus type 1 BH10
Field: numeric (nM). Do not append units.

compound: COCCCn1c(=O)nc(-c2ccc(N3CCN(C(C)C)CC3)nc2)c2oc3ccc(Cl)cc3c21
measurementLabel: IC50
resultUnit: nM
experimentalValue: 3

compound: CNc1ccc(-c2nc(=O)n(CCC3CCCO3)c3c2oc2ccc(-c4cnn(C)c4)cc23)cn1 (racemic)
measurementLabel: IC50
resultUnit: nM
experimentalValue: 1.5

compound: CCNCC(=O)Nc1ccc(-c2nc(=O)n(CCCOC)c3c2oc2ccc(Cl)cc23)cc1
measurementLabel: IC50
resultUnit: nM
experimentalValue: 2.8

compound: COCCn1c(=O)nc(-c2ccccc2)c2oc3ccc(-c4ccc(CN(C)C)cc4)cc3c21
measurementLabel: IC50
resultUnit: nM
experimentalValue: 2330

compound: Cc1ccc(-n2c(=O)nc(-c3ccccc3)c3oc4ccc(-c5ccc(CN(C)C)cc5)cc4c32)cc1C#N
measurementLabel: IC50
resultUnit: nM
experimentalValue: 7.3

compound: COCCCn1c(=O)nc(-c2ccc(N3CCNCC3)cc2)c2oc3ccc(Cl)cc3c21
measurementLabel: IC50
resultUnit: nM
experimentalValue: 1.7

compound: CC(C)n1c(=O)nc(-c2ccccc2)c2oc3ccc(-c4ccc(CN(C)C)cc4)cc3c21
measurementLabel: IC50
resultUnit: nM
experimentalValue: 800

compound: COCCCn1c(=O)nc(-c2ccc(N3CCN(C4CC4)CC3)cc2)c2oc3ccc(Cl)cc3c21
measurementLabel: IC50
resultUnit: nM
experimentalValue: 13

compound: CN(C)Cc1ccc(-c2ccc3oc4c(-c5ccccc5)nc(=O)n(-c5ccc([N+](=O)[O-])cc5)c4c3c2)cc1
measurementLabel: IC50
resultUnit: nM
experimentalValue: 1.7

compound: CCn1c(=O)nc(-c2ccccc2)c2oc3ccc(-c4ccc(CN(C)C)cc4)cc3c21
measurementLabel: IC50
resultUnit: nM
experimentalValue: 890

Give IC50 for the following compound: "CN(C)Cc1ccc(-c2ccc3oc4c(-c5ccccc5)nc(=O)n(C)c4c3c2)cc1"
645

For the compound "COCCCn1c(=O)nc(-c2ccc(N3CCN(C(C)C)CC3)cc2)c2oc3ccc(Cl)cc3c21" , give its reported IC50.
9.1

Answer with the recorded IC50 for the compound listed here: "COCCCn1c(=O)nc(-c2ccc(N3CCN(CCOC)CC3)cc2)c2oc3ccc(Cl)cc3c21"
10

Return value of IC50 for input "COCCCn1c(=O)nc(-c2ccc(N3CCN(CCOC)CC3)nc2)c2oc3ccc(Cl)cc3c21" , no commentary.
8

Read off the recorded IC50 for "COC[C@@H](C)Cn1c(=O)nc(-c2ccccc2)c2oc3ccc(-c4ccc(CN(C)C)cc4)cc3c21"
635

Supply measured IC50 of "CCCCn1c(=O)nc(-c2ccccc2)c2oc3ccc(-c4ccc(CN(C)C)cc4)cc3c21" in your reply.
42

State its IC50: "CNc1ccc(-c2nc(=O)n(CCCOC)c3c2oc2ccc(-c4cnn(C)c4)cc23)cn1"
4

Give the reported IC50 for this compound. "COC[C@H](C)Cn1c(=O)nc(-c2ccccc2)c2oc3ccc(-c4ccc(CN(C)C)cc4)cc3c21"
195
